molecular target: Tyrosyl-tRNA synthetase, putative (Trypanosoma cruzi (strain CL Brener)); assay: Trypanosoma cruzi tyrosyl tRNA synthetase (TcYRS) SOP; assay type: functional; parameters: scale not given: direction of the effect not stated beside the values; conditions: 30 µM
Listing of entries alongside the reported Percent Effect.
Please give a number only; it is taken to be in %.

Worked examples follow.
CN(C)C(=O)CNC(=O)Nc1cccc(Cl)c1SC(F)F
-2.56
CC(CN1CCOCC1)NC(=O)N(C)Cc1ccc(Cl)s1 (stereo not drawn)
13
COCCC(=O)N1CCC2(COCc3cnc(N4CCOCC4)nc32)C1 (stereo not drawn)
6.41

Inquiry: Reported Percent Effect for Cc1cc(C[C@@H]2COC[C@H]2NCc2ccccc2C(F)(F)F)on1 : what is it?
Reply text: 11.7

Inquiry: Reported Percent Effect for Cc1cccc(C(=O)N2C[C@@H]3CCN(c4cccnc4)C[C@@H]3C2)c1 : what is it?
Reply text: -3.85
